Listed below: AC50 values for each entry.
- system-under-test: Glucocorticoid receptor (Homo sapiens); note: assay procedure not described here
- Sequence (P04150 whole entry): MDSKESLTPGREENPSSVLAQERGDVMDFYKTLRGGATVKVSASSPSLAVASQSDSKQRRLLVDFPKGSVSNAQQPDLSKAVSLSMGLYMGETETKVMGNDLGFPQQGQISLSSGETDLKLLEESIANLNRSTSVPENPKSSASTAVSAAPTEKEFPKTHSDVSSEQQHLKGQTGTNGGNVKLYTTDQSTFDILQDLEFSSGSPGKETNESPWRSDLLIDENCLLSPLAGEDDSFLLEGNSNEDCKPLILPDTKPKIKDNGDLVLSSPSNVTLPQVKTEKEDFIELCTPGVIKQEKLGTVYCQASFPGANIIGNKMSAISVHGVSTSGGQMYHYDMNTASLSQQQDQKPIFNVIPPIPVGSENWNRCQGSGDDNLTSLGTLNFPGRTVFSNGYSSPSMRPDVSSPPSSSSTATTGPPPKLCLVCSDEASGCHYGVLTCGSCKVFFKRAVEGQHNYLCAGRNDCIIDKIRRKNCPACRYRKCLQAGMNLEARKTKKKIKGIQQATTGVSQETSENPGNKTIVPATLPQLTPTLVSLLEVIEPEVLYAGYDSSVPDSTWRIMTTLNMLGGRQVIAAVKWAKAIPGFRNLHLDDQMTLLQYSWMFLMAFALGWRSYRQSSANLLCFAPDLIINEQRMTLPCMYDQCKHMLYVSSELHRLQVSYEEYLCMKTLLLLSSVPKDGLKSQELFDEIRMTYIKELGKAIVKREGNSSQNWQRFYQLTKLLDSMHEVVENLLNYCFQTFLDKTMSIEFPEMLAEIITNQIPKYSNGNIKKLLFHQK

compound=COc1ccc(C(=O)N2CCN(c3ccc4c(c3)CCC(=O)N4)CC2)cc1OC attribute_measured=AC50 result="8 µM"

Q: Report value: AC50, system: Glucocorticoid receptor (Homo sapiens), compound: CC(N)Cc1ccccc1 (stereo not given); note: assay procedure not described here
Ans: > 30 µM

Q: Report value only: AC50, Glucocorticoid receptor (Homo sapiens), CC(C(=O)O)c1ccc(C(=O)c2cccs2)cc1 (stereo not given)
Ans: > 10 µM

Q: Report the value of AC50 obtained on Glucocorticoid receptor (Homo sapiens) for CO/N=C(\C(=O)N[C@@H]1C(=O)N2C(C(=O)[O-])=C(C[N+]3(C)CCCC3)CS[C@H]12)c1csc(N)n1 .
Ans: > 30 µM

Q: Report value: AC50, system: Glucocorticoid receptor (Homo sapiens), compound: COc1cc(Nc2c(C#N)cnc3cc(OCCCN4CCN(C)CC4)c(OC)cc23)c(Cl)cc1Cl; note: assay procedure not described here
Ans: > 30 µM
